The reported measurements were obtained from PubChem BioAssay AID1159580.

Experimental Protocol: chemical genetic growth profiling, strain panel (AID 1159580);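 also: tested at 20 µM; growth read once vehicle control cultures reached saturation at 30 °C; 1 = growth at the plate median or of vehicle wells; lower values mean less growth of the strain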
Reported Conditions: S. cerevisiae deletion strains, growth OD, locus YGL173C, strain kem1
Out of some 5,500 compounds screened, about 2,000 (36%) were called active. Inconclusive results (about 18%) are left out. Rule as the data show it: active = normalized growth mostly below about 0.91 (no sharp cut-off); inconclusive = no clear call, values can overlap the other calls; inactive = mostly above about 0.92. This is one part of the list.
Respond with a class label; see active, inactive

Please review the entries below; each comes with its answer.
{"columns": ["Compound", "Answer Label"],
 "data": [
  ["O=C(O)/C=C/C=C/c1ccccc1", "active"],
  ["O=C(O)CCCCC1CCSS1 (centres undefined)", "inactive"],
  ["NC[C@H](O)c1ccc(O)c(O)c1", "inactive"]
]}

**Q:** // param item: CC(=O)/C(=C\c1ccccc1)CC(=O)O ; yields the recorded call
**A:** inactive

====

Quick reference for normalized growth among some compounds
Experimental Protocol: chemical genetic growth profiling, strain panel (AID 1159580);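 also: tested at 20 µM; growth read once vehicle control cultures reached saturation at 30 °C; 1 = growth at the plate median or of vehicle wells; lower values mean less growth of the strain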
Reported Conditions: S. cerevisiae deletion strains, growth OD, locus YNL222W, strain SSU72, stronger effect = lower value
Among all 5,500 compounds or so, about 2,000 (36%) were called active. Roughly 18% stayed inconclusive and do not appear here. The list shows a part of the results.
Give a plain numeric answer without units written out.

Solved entries (count: 2):
{"columns": ["Compound", "Meas Value"],
 "data": [
  ["Cc1ccc(S(=O)(=O)CCSC2=CC(=O)CC(C)(C)S2)cc1", 1],
  ["OC(CNCc1ccc(Cl)cc1)CO/N=C\\C1=C(Cl)c2cc(Cl)ccc2OC1 (stereo not given)", 0.979]
]}

**Q:** // normalized growth lookup, key: C=CCOc1ccc(/C=C/[N+](=O)[O-])cc1
**A:** 0.0824

**Q:** // normalized growth lookup, key: O=C(NCCSCc1cccc(C(F)(F)F)c1)c1ccc(Cl)cc1
**A:** 0.965

**Q:** // normalized growth lookup, key: CCOC(=O)/C(=N/Nc1c(Cl)cccc1Cl)c1csc(N)n1
**A:** 0.969

====

Quick reference for normalized growth among some compounds
Experimental Protocol: chemical genetic growth profiling, strain panel (AID 1159580);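 also: tested at 20 µM; growth read once vehicle control cultures reached saturation at 30 °C; 1 = growth at the plate median or of vehicle wells; lower values mean less growth of the strain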
Reported Conditions: S. cerevisiae deletion strains, growth OD, locus YPL078C, strain atp4, stronger effect = lower value
In all, about 5,500 compounds went through this assay and about 2,000 (36%) were called active. Another 18% or so got no clear call; they are omitted. The list shows a part of the results.
Give a plain numeric answer without units written out.

Solved entries (count: 5):
{"columns": ["Compound", "normalized growth"],
 "data": [
  ["NC[C@H](O)c1ccc(O)c(O)c1", 1.01],
  ["O=C(NC(=O)c1c(F)cccc1F)Nc1ccc(Cl)cc1", 1],
  ["Oc1c(Br)cc(Br)c2cccnc12", 0.0651],
  ["CCC(Cc1c(I)cc(I)c(N)c1I)C(=O)O (configuration not stated)", 0.974],
  ["NCC(O)c1ccc(O)cc1 (configuration not stated)", 1.01]
]}

**Q:** // normalized growth lookup, key: CCCC(C)C1(CC)C(=O)N=C(S)NC1=O (configuration not stated)
**A:** 0.981

**Q:** // normalized growth lookup, key: C=C(C)[C@H]1CC=C(C(=O)O)CC1
**A:** 0.959

**Q:** // normalized growth lookup, key: C=CCC1(C(C)CCC)C(=O)N=C(S)NC1=O (configuration not stated)
**A:** 0.937

**Q:** // normalized growth lookup, key: O=C(O)C1=CCNCC1
**A:** 0.991
